target: DNA gyrase subunit A/DNA gyrase subunit B (Mycobacterium tuberculosis (strain ATCC 25618 / H37Rv), UniProt P9WG45+P9WG47); test: Inhibition of Mycobacterium tuberculosis DNA gyrase assessed as inhibition of DNA supercoiling activity using relaxed pBR322 as substrate incubated for 30 mins by ethidium bromide staining based agarose gel electrophoresis
Sequence (P9WG45 whole entry): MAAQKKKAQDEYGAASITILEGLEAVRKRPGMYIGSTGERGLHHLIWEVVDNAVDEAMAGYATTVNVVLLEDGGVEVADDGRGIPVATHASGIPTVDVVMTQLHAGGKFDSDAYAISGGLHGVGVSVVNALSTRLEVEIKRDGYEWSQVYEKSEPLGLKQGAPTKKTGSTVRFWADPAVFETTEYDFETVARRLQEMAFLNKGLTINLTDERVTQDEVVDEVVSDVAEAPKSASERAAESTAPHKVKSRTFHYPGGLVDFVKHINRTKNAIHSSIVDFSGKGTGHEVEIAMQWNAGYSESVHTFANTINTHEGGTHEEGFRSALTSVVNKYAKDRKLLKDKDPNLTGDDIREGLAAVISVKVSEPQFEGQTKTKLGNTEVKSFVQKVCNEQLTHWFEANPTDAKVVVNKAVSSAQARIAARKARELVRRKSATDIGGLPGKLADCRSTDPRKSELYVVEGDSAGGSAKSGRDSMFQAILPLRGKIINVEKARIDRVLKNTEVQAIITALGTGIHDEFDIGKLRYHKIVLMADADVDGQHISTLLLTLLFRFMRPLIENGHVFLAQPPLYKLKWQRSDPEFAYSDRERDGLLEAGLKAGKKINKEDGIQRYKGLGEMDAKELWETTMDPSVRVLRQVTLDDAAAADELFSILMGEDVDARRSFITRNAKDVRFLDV
Sequence (P9WG47 whole entry): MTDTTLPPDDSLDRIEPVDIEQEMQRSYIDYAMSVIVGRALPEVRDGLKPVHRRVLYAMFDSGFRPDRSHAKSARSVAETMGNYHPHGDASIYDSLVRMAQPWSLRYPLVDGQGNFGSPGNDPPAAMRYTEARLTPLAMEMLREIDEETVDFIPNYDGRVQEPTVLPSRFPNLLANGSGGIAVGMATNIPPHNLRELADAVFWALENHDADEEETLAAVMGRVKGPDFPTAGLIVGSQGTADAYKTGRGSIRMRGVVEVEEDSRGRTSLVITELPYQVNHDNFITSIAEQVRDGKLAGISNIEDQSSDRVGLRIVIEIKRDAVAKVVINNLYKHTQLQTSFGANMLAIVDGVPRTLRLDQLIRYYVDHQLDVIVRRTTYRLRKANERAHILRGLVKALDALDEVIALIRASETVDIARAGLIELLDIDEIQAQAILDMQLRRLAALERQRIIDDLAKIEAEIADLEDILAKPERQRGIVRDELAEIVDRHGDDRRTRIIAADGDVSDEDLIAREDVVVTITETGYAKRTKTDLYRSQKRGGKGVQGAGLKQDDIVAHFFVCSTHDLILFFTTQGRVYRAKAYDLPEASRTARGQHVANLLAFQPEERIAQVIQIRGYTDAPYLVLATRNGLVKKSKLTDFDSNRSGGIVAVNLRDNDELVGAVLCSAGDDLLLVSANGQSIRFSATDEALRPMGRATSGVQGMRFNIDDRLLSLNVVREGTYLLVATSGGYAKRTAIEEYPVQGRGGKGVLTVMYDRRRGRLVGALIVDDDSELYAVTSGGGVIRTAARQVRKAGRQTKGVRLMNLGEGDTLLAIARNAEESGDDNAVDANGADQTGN
property: log10(IC50) (log10 of the value in µM)
All values: base-10 log of IC50 in µM.

O=C1C(=O)N(CCN2CCN(NCc3ccccc3F)CC2)c2ccccc21 :: 1.64
O=C(Nc1ccc([N+](=O)[O-])cc1)N1CCN(c2nc(=O)c3cc(Cl)ccc3s2)CC1 :: 0.66
COc1ccc2c(c1)C(=O)C(=O)N2CCN1CCN(NCc2cccc(Cl)c2Cl)CC1 :: 1.69

Answer with reported log10(IC50) of `O=C1C(=O)N(CCN2CCN(NCc3cccc(Cl)c3Cl)CC2)c2ccc(Cl)cc21`
1.41

Answer with reported log10(IC50) of `O=c1nc(N2CCN(Cc3ccccc3)CC2)sc2ccc([N+](=O)[O-])cc12`
0.51

---

test: Cytotoxicity against mouse RAW264.7 cells assessed as inhibition of cell viability at 100 uM measured after 72 hrs by MTT assay relative to control; format: toxicity; settings: read-out: INH
# reported cytotoxicity at 72 h, 100 µM; entries follow
Answer as a quantity: numeral, then unit.

Recorded results for 9 compounds are shown here.
O=C1C(=O)N(CCN2CCN(NCc3ccccc3OCc3ccccc3)CC2)c2ccc(F)cc21 :: 11.7%
COc1ccccc1CNN1CCN(CCN2C(=O)C(=O)c3cc(Cl)ccc32)CC1 :: 24%
COc1ccc2c(c1)C(=O)C(=O)N2CCN1CCN(NCc2ccccc2)CC1 :: 21.6%
O=C1C(=O)N(CCN2CCN(NCc3cccc(Cl)c3Cl)CC2)c2ccc(Cl)cc21 :: 17.4%
O=C1C(=O)N(CCN2CCN(NCc3ccc([N+](=O)[O-])o3)CC2)c2ccc(F)cc21 :: 37.8%
O=C1C(=O)N(CCN2CCN(NCc3ccccc3C(F)(F)F)CC2)c2ccccc21 :: 4.2%
COc1ccc2c(c1)C(=O)C(=O)N2CCN1CCN(NCc2ccccc2OC)CC1 :: 15.4%
COc1ccc2c(c1)C(=O)C(=O)N2CCN1CCN(NCc2ccc(Cl)cc2Cl)CC1 :: 26.4%
COc1ccccc1CNN1CCN(CCN2C(=O)C(=O)c3cc(C)ccc32)CC1 :: 9.42%

Next up:
Answer with reported cytotoxicity at 72 h, 100 µM of `Cc1ccc2c(c1)C(=O)C(=O)N2CCN1CCN(NCc2ccccc2C(F)(F)F)CC1`
13.6%

---

experiment: Cytotoxicity against mouse RAW264.7 cells assessed as inhibition of cell viability at 100 uM measured after 72 hrs by MTT assay relative to control; assay type: toxicity; conditions: read-out: INH
property: cytotoxicity at 72 h, 100 µM (%)
Unit % implied. Number only.

Recorded results for 6 compounds are shown here.
O=C1C(=O)N(CCN2CCN(NCc3cccc(Cl)c3Cl)CC2)c2ccc(F)cc21 :: 31.2
O=C1C(=O)N(CCN2CCN(NCc3ccccc3F)CC2)c2ccc(F)cc21 :: 22.1
Cc1ccc2c(c1)C(=O)C(=O)N2CCN1CCN(NCc2ccccc2F)CC1 :: 27.6
O=C1C(=O)N(CCN2CCN(NCc3ccccc3)CC2)c2ccc(Cl)cc21 :: 22.3
Cc1ccc2c(c1)C(=O)C(=O)N2CCN1CCN(NCc2ccc([N+](=O)[O-])o2)CC1 :: 27.8
O=C1C(=O)N(CCN2CCN(NCc3ccccc3F)CC2)c2ccc(Cl)cc21 :: 17.6

Answer with reported cytotoxicity at 72 h, 100 µM of `COc1ccc2c(c1)C(=O)C(=O)N2CCN1CCN(NCc2ccccc2OCc2ccccc2)CC1`
16.3

Values compiled from ChEMBL document CHEMBL3875146.
